- target-or-test-system: CYP2C9 (Homo sapiens)
- Construct: co-incubation ticagrelor-O-Glu with selective P450 probe substrates in HLM; tissue XenoTech LLC; host or cells: pooled human liver microsomes
- Sequence (P11712 whole entry): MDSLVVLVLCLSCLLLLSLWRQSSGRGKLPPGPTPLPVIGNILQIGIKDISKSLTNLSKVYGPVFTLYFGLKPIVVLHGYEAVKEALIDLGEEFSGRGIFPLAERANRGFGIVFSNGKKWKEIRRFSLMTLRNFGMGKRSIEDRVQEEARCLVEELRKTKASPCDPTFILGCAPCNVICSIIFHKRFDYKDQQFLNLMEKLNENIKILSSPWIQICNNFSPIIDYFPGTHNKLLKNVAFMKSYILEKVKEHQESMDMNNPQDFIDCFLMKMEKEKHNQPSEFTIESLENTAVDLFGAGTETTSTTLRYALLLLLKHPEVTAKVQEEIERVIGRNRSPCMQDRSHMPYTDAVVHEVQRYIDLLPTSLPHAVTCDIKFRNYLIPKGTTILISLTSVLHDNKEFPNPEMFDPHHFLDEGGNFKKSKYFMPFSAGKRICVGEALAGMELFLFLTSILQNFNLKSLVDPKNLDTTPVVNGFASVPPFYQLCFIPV
- protocol-details: CYP2C9 inhibition in HLM (diclofenac 4′-hydroxylase)
- Assay type: in vitro ADME
- applied-conditions: human, human liver microsomes, pH 7.4, probe diclofenac (10 μM), 4′-hydroxylation diclofenac formation; HLM, 100 μM ticagrelor-O-Glu; read-out: inhibition of CYP2C9 enzyme activity
readout-label: inhibition at 100 µM (%)
Give the value, in units of %, as a plain number.

Give me measured inhibition at 100 µM, please, for this molecule: CCCSc1nc(N[C@@H]2C[C@H]2c2ccc(F)c(F)c2)c2nnn([C@@H]3C[C@H](OCCO[C@@H]4O[C@H](C(=O)O)[C@@H](O)[C@H](O)[C@H]4O)[C@@H](O)[C@H]3O)c2n1 [Ticagrelor-O-Glu, ticagrelor-O-glucuronide]
73.5

---

- target-or-test-system: CYP2C9 (Homo sapiens)
- Construct: co-incubation ticagrelor-O-Glu with selective P450 probe substrates in HLM; tissue XenoTech LLC; host or cells: pooled human liver microsomes
- protocol-details: CYP2C9 inhibition in HLM (diclofenac 4′-hydroxylase)
- Type: in vitro ADME
- applied-conditions: human, human liver microsomes, pH 7.4, probe diclofenac (10 μM), 4′-hydroxylation diclofenac formation; HLM, 10 μM ticagrelor-O-Glu; read-out: inhibition of CYP2C9 enzyme activity
readout-label: inhibition at 10 μM (%)
Give the value, in units of %, as a plain number.

Give me measured inhibition at 10 μM, please, for this compound: CCCSc1nc(N[C@@H]2C[C@H]2c2ccc(F)c(F)c2)c2nnn([C@@H]3C[C@H](OCCO[C@@H]4O[C@H](C(=O)O)[C@@H](O)[C@H](O)[C@H]4O)[C@@H](O)[C@H]3O)c2n1 [Ticagrelor-O-Glu, ticagrelor-O-glucuronide]
44

---

- target-or-test-system: CYP3A4 (Homo sapiens)
- Construct: co-incubation ticagrelor-O-Glu with selective P450 probe substrates in HLM; tissue XenoTech LLC; host or cells: pooled human liver microsomes
- Sequence (P08684 whole entry): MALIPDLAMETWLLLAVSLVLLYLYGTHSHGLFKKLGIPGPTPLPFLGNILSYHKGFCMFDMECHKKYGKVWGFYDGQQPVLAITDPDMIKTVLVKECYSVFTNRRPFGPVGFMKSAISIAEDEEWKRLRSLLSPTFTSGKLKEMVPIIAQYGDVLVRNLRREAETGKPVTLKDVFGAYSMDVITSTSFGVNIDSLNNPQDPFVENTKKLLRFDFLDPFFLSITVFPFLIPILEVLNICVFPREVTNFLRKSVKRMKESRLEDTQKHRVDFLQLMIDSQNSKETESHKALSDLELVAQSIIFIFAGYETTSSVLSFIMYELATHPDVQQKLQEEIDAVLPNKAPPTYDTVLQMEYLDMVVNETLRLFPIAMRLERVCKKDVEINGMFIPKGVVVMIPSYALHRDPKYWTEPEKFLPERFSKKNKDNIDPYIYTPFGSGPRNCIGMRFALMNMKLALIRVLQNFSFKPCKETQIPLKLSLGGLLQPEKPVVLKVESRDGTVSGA
- protocol-details: CYP3A4 inhibition in HLM (testosterone 6β-hydroxylase)
- Type: in vitro ADME
- applied-conditions: human liver microsomes, pH 7.4, probe testosterone (80 μM), 6β-hydroxy testosterone formation, HLM, 100 μM ticagrelor-O-Glu, read-out: inhibition of CYP3A4 enzyme activity
readout-label: inhibition at 100 µM (%)
Give the value, in units of %, as a plain number.

Fill in inhibition at 100 µM for CCCSc1nc(N[C@@H]2C[C@H]2c2ccc(F)c(F)c2)c2nnn([C@@H]3C[C@H](OCCO[C@@H]4O[C@H](C(=O)O)[C@@H](O)[C@H](O)[C@H]4O)[C@@H](O)[C@H]3O)c2n1 [Ticagrelor-O-Glu, ticagrelor-O-glucuronide] tested with CYP3A4 (Homo sapiens).
57.1

---

Task for the reader: assign each of the following molecules its reported IC50.
Protein target, amino acids: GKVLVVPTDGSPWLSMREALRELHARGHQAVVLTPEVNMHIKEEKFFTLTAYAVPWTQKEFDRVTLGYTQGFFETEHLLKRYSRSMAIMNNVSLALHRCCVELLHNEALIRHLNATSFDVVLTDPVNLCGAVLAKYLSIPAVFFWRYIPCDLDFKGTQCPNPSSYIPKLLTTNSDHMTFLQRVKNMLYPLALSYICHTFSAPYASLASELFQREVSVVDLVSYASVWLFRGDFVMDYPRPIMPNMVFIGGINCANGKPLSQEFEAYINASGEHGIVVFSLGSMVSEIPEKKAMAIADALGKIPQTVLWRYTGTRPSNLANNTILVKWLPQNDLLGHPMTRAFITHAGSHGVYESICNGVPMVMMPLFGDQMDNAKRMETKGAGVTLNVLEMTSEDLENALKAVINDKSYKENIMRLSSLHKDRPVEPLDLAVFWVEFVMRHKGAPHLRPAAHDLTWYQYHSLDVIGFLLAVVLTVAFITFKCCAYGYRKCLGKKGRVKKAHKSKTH

Give me measured IC50, please, for this molecule: CCCSc1nc(N[C@@H]2C[C@H]2c2ccc(F)c(F)c2)c2nnn([C@@H]3C[C@H](OCCO[C@@H]4O[C@H](C(=O)O)[C@@H](O)[C@H](O)[C@H]4O)[C@@H](O)[C@H]3O)c2n1 [Ticagrelor-O-Glu, ticagrelor-O-glucuronide]
> 100 µM

Give me measured IC50, please, for this molecule: CCCSc1nc(N[C@@H]2C[C@H]2c2ccc(F)c(F)c2)c2nnn([C@@H]3C[C@H](OCCO)[C@@H](O)[C@H]3O)c2n1 [Ticagrelor]
> 100 µM
